# Tested on: Tobacco mosaic virus
# ASSAY NAME: Antiviral activity against 30 mins compound pre-treated TMV U1 infected on Nicotiana glutinosa leaves assessed as virus inactivation effect by measuring local lesion numbers after 3 to 4 days post virus inoculation at 40 ug/ml by half-leaf method relative to untreated control
# Format: functional
# CONDITIONS USED: U1, in Nicotiana glutinosa
Here, each record is paired with measured inhibition at 40 µg/mL data.
The response must be a number in % with no trailing unit.

For orientation, consider the following solved cases.
• C/C=C(\C)C(=O)O[C@H]1C[C@@H](OC(C)=O)[C@@]2(C)CO[C@H]3[C@@H](O)[C@@]4(C)C5=C(C)[C@H](c6ccoc6)C[C@@H]5O[C@H](OC)C[C@@H]4[C@]1(C)[C@@H]32 = 79.8
• CC(=O)O[C@@H]1[C@@H]2[C@@]3(C)[C@@H](OC(C)=O)CC(=O)OC(C)(C)[C@@H]3CC(=O)[C@@]2(C)[C@@]23O[C@@H]2C[C@@H](c2ccoc2)[C@]3(C)[C@H]1OC(C)=O = 91.4

Item: "CC(=O)O[C@H]1C[C@H]2[C@](C)(C3=CC[C@@H](c4ccoc4)[C@@]31C)[C@H](OC(C)=O)C[C@H]1C(C)(C)OC(=O)C[C@H](OC(C)=O)[C@@]12C" Test system: Tobacco mosaic virus Read-out: inhibition at 40 µg/mL Value: ? 57.6

---

Each entry below lists one item and its recorded inhibition at 40 µg/mL value.
# System: Tobacco mosaic virus
# ASSAY NAME: Antiviral activity against 30 mins compound pre-treated TMV U1 infected on Nicotiana glutinosa leaves assessed as virus inactivation effect by measuring local lesion numbers after 3 to 4 days post virus inoculation at 40 ug/ml by half-leaf method relative to untreated control
# Format: functional
# CONDITIONS USED: U1, in Nicotiana glutinosa
State the answer as a number, implicitly in %.

Here is how some compounds turned out for inhibition at 40 µg/mL.
- CC(=O)O[C@@H]1[C@@H]2[C@@]3(C)C=CC(=O)OC(C)(C)[C@@H]3CC(=O)[C@@]2(C)[C@@]23O[C@@H]2C[C@@H](c2ccoc2)[C@]3(C)[C@H]1OC(C)=O: 92.3
- CNCC(=O)N[C@@H](CO)C(=O)N[C@H]1[C@H](O)[C@@H](O)[C@H](n2ccc(N)nc2=O)O[C@@H]1C(N)=O: 38.6
- C/C=C(\C)C(=O)O[C@H]1C[C@@H](OC(C)=O)[C@@]2(C)CO[C@H]3[C@@H](O)[C@@]4(C)C5=C(C)[C@H](c6ccoc6)C[C@H]5O[C@@H](OC)C[C@@H]4[C@]1(C)[C@@H]32: 70.3
- CC(=O)O[C@H]1C[C@@H]2[C@@]3(C)[C@@H](OC(C)=O)CC(=O)OC(C)(C)[C@@H]3CC[C@@]2(C)C2=CC[C@@H](c3ccoc3)[C@@]21C: 73.7

Next up:
Look at this compound and give its reported inhibition at 40 µg/mL. "C=C1[C@@H]([C@@]2(C)[C@@H](OC(C)=O)CC(=O)O[C@](C)(COC(C)=O)[C@@H]2C(=O)OC)[C@@H](OC=O)[C@H](OC(=O)[C@H](O)[C@H](C)CC)[C@@]2(C)[C@H](c3ccoc3)CC(=O)[C@]12O" 39.3

---

# Tested on: Tobacco mosaic virus
# ASSAY NAME: Antiviral activity against 30 mins compound pre-treated TMV U1 infected on Nicotiana glutinosa leaves assessed as virus inactivation effect by measuring local lesion numbers after 3 to 4 days post virus inoculation at 10 ug/ml by half-leaf method relative to untreated control
# Type: functional
# CONDITIONS USED: U1, in Nicotiana glutinosa
QUANTITY KIND: inhibition at 10 µg/mL (%)
A number alone suffices; assume %.

Consider the worked cases shown below.
* CC(=O)O[C@H]1C[C@@H]2[C@@]3(C)[C@@H](OC(C)=O)CC(=O)OC(C)(C)[C@@H]3CC[C@@]2(C)C2=CC[C@@H](c3ccoc3)[C@@]21C | 20.3
* C/C=C(\C)C(=O)O[C@H]1C[C@@H](OC(C)=O)[C@@]2(C)CO[C@H]3[C@@H](O)[C@@]4(C)C5=C(C)[C@H](c6ccoc6)C[C@H]5O[C@@H](OC)C[C@@H]4[C@]1(C)[C@@H]32 | 16.4
* C=C1[C@@H]([C@@]2(C)[C@@H](OC(C)=O)CC(=O)O[C@](C)(COC(C)=O)[C@@H]2C(=O)OC)[C@@H](OC=O)[C@H](OC(=O)[C@H](O)[C@H](C)CC)[C@@]2(C)[C@H](c3ccoc3)CC(=O)[C@]12O | 3.5
* CC(=O)O[C@@H]1[C@@H]2[C@@]3(C)C=CC(=O)OC(C)(C)[C@@H]3CC(=O)[C@@]2(C)[C@@]23O[C@@H]2C[C@@H](c2ccoc2)[C@]3(C)[C@H]1OC(C)=O | 30.9
* CC(=O)O[C@H]1C[C@H]2[C@](C)(C3=CC[C@@H](c4ccoc4)[C@@]31C)[C@H](OC(C)=O)C[C@H]1C(C)(C)OC(=O)C[C@H](OC(C)=O)[C@@]12C | 21.5

For the compound "CC(=O)O[C@@H]1[C@@H]2[C@@]3(C)[C@@H](OC(C)=O)CC(=O)OC(C)(C)[C@@H]3CC(=O)[C@@]2(C)[C@@]23O[C@@H]2C[C@@H](c2ccoc2)[C@]3(C)[C@H]1OC(C)=O" , what inhibition at 10 µg/mL is on record? 28.7

Look up inhibition at 10 µg/mL: "C/C=C(\C)C(=O)O[C@H]1C[C@@H](OC(C)=O)[C@@]2(C)CO[C@H]3[C@@H](O)[C@@]4(C)C5=C(C)[C@H](c6ccoc6)C[C@@H]5O[C@H](OC)C[C@@H]4[C@]1(C)[C@@H]32" 20.5

Give its inhibition at 10 µg/mL value. Item: "CNCC(=O)N[C@@H](CO)C(=O)N[C@H]1[C@H](O)[C@@H](O)[C@H](n2ccc(N)nc2=O)O[C@@H]1C(N)=O" 17.9
